# Tested on: Tov112D
# PROTOCOL_TEXT: Primary qHTS to identify gynecologic anti-cancer compounds using libraries of approved drugs and bioactive compounds (AID 1345084); also: nearly all actives have a fitted effect of over 55% in size
# CONDITION_SUMMARY: Gynecologic cancer cell panel viability, ATPlite luminescence, 48 h; series mostly up to 57.5 µM
Results filed as inconclusive are left out. Active and inactive are the calls of the source. Calls follow the shape of the dose curve; as a rule, active = well fitted cell-killing curve with a large enough effect; inconclusive = small, poorly fitted or top-dose-only effect, or effect the other way; inactive = flat fitted curve, though single readings scatter.
Respond only with the outcome that fits, drawn from true (1) (active), false (0) (inactive)

As a guide, the following entries are already answered.
INSERT INTO assay_data (compound, assigned_category) VALUES
  ('C#C[C@]1(O)CC[C@H]2[C@@H]3CCc4cc(OC5CCCC5)ccc4[C@H]3CC[C@@]21C', 'false (0)'),
  ('O=C1[C@H]2CCCC[C@H]2C(=O)N1CCCCN1CCN(c2nsc3ccccc23)CC1', 'false (0)'),
  ('CC(=O)OCC(=O)NCCCOc1cccc(CN2CCCCC2)c1', 'false (0)'),
  ('CO/N=C1\CN(c2nc3c(cc2F)c(=O)c(C(=O)O)cn3C2CC2)CC1CN (stereo unspecified)', 'false (0)'),
  ('CCOc1ccc(NC(=O)CC(C)O)cc1 (stereo unspecified)', 'false (0)');

Record lookup: outcome of this test for "CCCCOc1cc(C(=O)NCCN(CC)CC)c2ccccc2n1" ?
false (0)

Lab log entry: "Oc1c(Cl)cc(Cl)cc1Sc1cc(Cl)cc(Cl)c1O" — outcome as called in the assay?
false (0)
